assay: chemical genetic growth profiling, strain panel (AID 1159580);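 further: tested at 20 µM; growth read once vehicle control cultures reached saturation at 30 °C; 1 = growth at the plate median or of vehicle wells; lower values mean less growth of the strain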; details: S. cerevisiae deletion strains, growth OD, locus YDL074C, strain BRE1, active compounds read low
Hit rate of the full screen: of about 5,500 compounds, about 2,000 (36%) were called active. Not shown: some 18% with an inconclusive outcome. Some of the results follow.
quantity: normalized growth
I only need the number, thanks.

> print(dat)
                        compound  result
1  COP(=S)(OC)SCn1nnc2ccccc2c1=O     0.9

Turning to the following compound.
Look up normalized growth for this compound: O=C1OC(=O)C2C3CCC(O3)C12 (stereo unspecified)
1.01

---

# normalized growth annotations
assay: chemical genetic growth profiling, strain panel (AID 1159580);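 further: tested at 20 µM; growth read once vehicle control cultures reached saturation at 30 °C; 1 = growth at the plate median or of vehicle wells; lower values mean less growth of the strain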; conditions: S. cerevisiae deletion strains, growth OD, locus YNL322C, strain KRE1, active compounds read low
Screen size: about 5,500 compounds; about 2,000 (36%) were called active. Roughly 18% stayed inconclusive and do not appear here. The list shows a part of the results.
I only need the number, thanks.

Example entries and their recorded answers appear below.
> print(dat)
                                   compound           quantity  result
1  CCCCCC(CC(=O)NO)C(=O)NC(C(=O)N1CCCC1CO)C(C)C (centres undefined)  normalized growth    1.01
2     Fc1ccc(CN(C2=NCCN2)c2c(Cl)cccc2Cl)cc1  normalized growth       1
3  CC(O)CNc1ccc(C(F)(F)F)cc1[N+](=O)[O-] (centres undefined)  normalized growth       1
4  FC(F)(F)c1cc(NC2=NCCN=C(Nc3cc(C(F)(F)F)cc(C(F)(F)F)c3)SS2)cc(C(F)(F)F)c1  normalized growth       1
5                COc1cc2ccc(=O)oc2c(OC)c1OC  normalized growth    1.02

Look up normalized growth for this compound: COc1ccc2ccc(=O)oc2c1CC=C(C)C
0.804

And then COc1ccc2[nH]c(I)c(CCNC(C)=O)c2c1 , what is it?
1.02
